All figures here come from patent US3950527A.

# ASSAY_NOTES: Acute toxicity
# CONDITION_CONTEXT: mouse, in vivo, ip; mice, intraperitoneal, mortality after 48 hours; read-out: DL50, acute toxicity
# log10 of LD50 at 48 h listing for each entry below
All values: base-10 log of LD50 at 48 h in mg/kg.

Would you please look over these solved cases?
COc1ccc(S(N)(=O)=O)cc1C(=O)NCCN1CCC(c2c[nH]c3ccccc23)CC1    2.90
O=C(NCCN1CCC(c2c[nH]c3ccccc23)CC1)c1ccccc1    2.48
COc1ccc2c(C3CCN(CCNC(=O)c4ccc(F)cc4)CC3)c(C)[nH]c2c1    2.60
O=C(NCCCN1CCC(c2c[nH]c3ccccc23)CC1)c1ccc(F)cc1    1.78

Now look at this one.
Exercise: Look up log10 of LD50 at 48 h for this compound: O=C(NCCN1CCC(c2c[nH]c3ccccc23)CC1)c1ccc(F)cc1
Key: 2.10
